Exercise: for every item that follows, state its recorded Ki.
# EXPERIMENTAL SYSTEM: Protease (Human immunodeficiency virus 1)
# Sequence (Q9YQ12 whole entry): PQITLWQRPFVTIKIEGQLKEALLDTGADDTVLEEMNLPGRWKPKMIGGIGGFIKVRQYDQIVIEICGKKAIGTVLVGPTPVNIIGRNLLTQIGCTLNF
# TEST DESCRIPTION: Inhibition of HIV1 recombinant protease after 15 mins by fluorescence assay

Task item: Please report the measured Ki for Cc1ccccc1CNC(=O)[C@H]1N(C(=O)[C@@H](O)[C@H](Cc2ccccc2)NC(=O)c2cccc(O)c2C)CSC1(C)C
Reply: 31 pM

Task item: Please report the measured Ki for Cc1cccc(C)c1CNC(=O)[C@H]1N(C(=O)[C@@H](O)[C@H](Cc2ccccc2)NC(=O)c2cccc(O)c2C)CSC1(C)C
Reply: 2.4 pM

Task item: Please report the measured Ki for C=C(C)CNC(=O)[C@H]1N(C(=O)[C@@H](O)[C@H](Cc2ccccc2)NC(=O)c2cccc(O)c2C)CSC1(C)C
Reply: 190 pM
